Value source: patent US20230265217A1

# system_under_test: T1, SARS-CoV-2 S1 (Acro) (SARS-CoV-2, UniProt P0DTC2 16-685)
# T1 construct: also called Acro S1
# measurement_notes: Carterra SPR
observed_property: Kd (nM)
Give the value in nM but do not write nM after it.

Reference set, count: 3
5A-1 (VHH) VHH: EVQLVESGGGLVQPGGSLRLSCAASGGTFSSIGMGWFRQAPGKEREFVAAISWDGGATAYADSVKGRFTISADNSKNTAYLQMNSLKPEDTAVYYCAKEDVGKPFDWGQGTLVTVSS ... 6.6
3-28 (VHH, not shown: a dimerising Fc or GST) VHH: EVQLVESGGGLVQPGGSLRLSCAASGFTFRRYDMGWFRQAPGKEREFVSAISGGLAYYADSVKGRFTISADNSKNTAYLQMNSLKPEDTAVYYCAVDLSGDAVYDWGQGTLVTVSS ... 52.2
7-14 (VHH) VHH: EVQLVESGGGLVQPGGSLRLSCAASGSTFSINAMGWFRQAPGKEREFVAGISRGGTTNYADSVKGRFTISADNSKNTAYLQMNSLKPEDTAVYYCAADGVPEYSDYASGPVWGQGTLVTVSS ... 20.8

Q: State the recorded Kd for this entry: 7-09 (VHH, also called 7-9) VHH: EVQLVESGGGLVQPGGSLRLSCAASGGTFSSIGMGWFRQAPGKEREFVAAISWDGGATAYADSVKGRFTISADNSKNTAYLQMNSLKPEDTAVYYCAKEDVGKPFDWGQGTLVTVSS
A: 24.1
